Test system: A498
test-summary: NCI tumour cell line growth inhibition, 48 h
The source made the active and inactive calls. No stated cut-off is given here; in the data, active = GI50 up to about 1.1 µM and inactive = higher.
measure: GI50

compound | assay-system | GI50
COc1cc(/C=C/c2ccc(O)c(OC)c2)cc(OC)c1 | A498 | 21.6 µM (inactive)
c1ccc(C[n+]2cccc(-c3cc4ccccc4[nH]3)c2)cc1 | A498 | 39.5 µM (inactive)
COC(=O)C(C(=O)C(=O)Nc1ccc(C)cc1C)c1csc(-n2nc(-c3ccccc3)cc2-c2ccccc2)n1 (stereo unspecified) | A498 | > 100 µM (inactive)

Please state recorded GI50 (tested on A498) of NC(=O)NC(=O)c1cccc(NC(=O)CF)c1 > 100 µM (inactive)

Now the compound CCN1C[C@]2(COC)[C@H](O)C[C@H](OC)[C@]34C1[C@H]([C@H](OC)[C@H]23)[C@]1(OC(C)=O)[C@H]2[C@@H](OC(=O)c3ccccc3)[C@](O)(C[C@H]24)[C@@H](OC)[C@@H]1O > 100 µM (inactive)

====

System: HCT-116
test-summary: NCI tumour cell line growth inhibition, 48 h
Calls of active or inactive are those of the source. Cut-off read from the data, not from the text of the source: active = GI50 up to about 1.1 µM and inactive = higher.
Listed molecules paired with reported GI50

molecule | GI50
CCN(CC)CC1CCCCN1CC(=O)N1c2ccc(Br)cc2C(=O)Nc2cccnc21 (stereo not given) | > 100 µM (inactive)

// lookup GI50 for COc1cc(S(=O)(=O)Nc2nc(-c3ccc(N4C(=O)CSC4c4cccs4)cc3)cs2)ccc1Cl (stereo not given) 45.2 µM (inactive)

Now the molecule CCCCC(C(=O)NCCNC(=O)CCC(=O)N(C)O)C(=O)NCCNC(=O)CCC(=O)N(C)O > 100 µM (inactive)

Now the molecule OC1CC(O)c2c(Cl)sc(Cl)c21 (stereo not given) 31.4 µM (inactive)

Now the molecule Oc1ccc(Cl)cc1C1=NC(NCNC2=NC(c3ccccc3)CC(c3cc(Cl)ccc3O)=N2)=NC(c2ccccc2)C1 (stereo not given) 56 µM (inactive)

Now the molecule CCOP(=O)(OCC)C1=C(c2ccccc2)OC(N)=C(C#N)C1c1ccc(Cl)cc1 (stereo not given) > 100 µM (inactive)

Now the molecule CCOC(C[C@H](O[Si](C)(C)C(C)(C)C)[C@H]1COC(=S)S1)OCC 39.2 µM (inactive)

Now the molecule OC(c1ccc(C(F)(F)F)cc1)C(F)(F)c1nc2ccccc2o1 (stereo not given) > 100 µM (inactive)

Now the molecule CCOC(=O)c1ccc2nc3n(c2c1)C(c1c(F)cccc1F)SC3 (stereo not given) 50.4 µM (inactive)

Now the molecule O=C(O)CCC1(Br)CCCCC(Br)C1=O (stereo not given) > 100 µM (inactive)

====

Listed compounds paired with reported GI50
Tested on: OVCAR-8
test-summary: NCI tumour cell line growth inhibition, 48 h
The source made the active and inactive calls. No stated cut-off is given here; in the data, active = GI50 up to about 1.1 µM and inactive = higher.

compound | measure | observed
COC(CC1(/C=C/O[Si](C(C)C)(C(C)C)C(C)C)C(=O)N(C)c2ccccc21)OC (stereo not given) | GI50 | 54.3 µM (inactive)
Cc1c(N(Cc2ccccc2)Cc2ccccc2)nc(S(C)(=O)=O)nc1S(C)(=O)=O | GI50 | 1.85 µM (inactive)
CC(C)(C)C(=O)OCC1OC(N=[N+]=[N-])C(OC(=O)C(C)(C)C)C(OC(=O)C(C)(C)C)C1OC(=O)C(C)(C)C (stereo not given) | GI50 | > 100 µM (inactive)
CC(=O)Nc1ccc(C(=O)N2N=C(C)/C(=C/c3ccccc3O)C2=O)cc1 | GI50 | > 100 µM (inactive)

// lookup GI50 for COC(=O)[C@@]1(C)/C(=N/NS(=O)(=O)c2ccc(C)cc2)CCC[C@@H]1C > 100 µM (inactive)
